Test system: OVCAR-5 ovarian
Assay: NCI-60 one-dose screen, 48 h
Conditions: 10 µM unless noted
The panel holds about 83,000 compounds, 20% with a hit somewhere; the sample as a whole holds those more often. Active and inactive are the calls of the source. The calls were made as follows: active = growth percent below 10; inactive = the rest.
The categories you may choose from are active, inactive

Consider the worked cases shown below.
S=c1[nH]c2cc(Cl)ccc2s1: inactive
CCN(CC)CC(O)CNc1ccc(NCC2CO2)c2c1C(=O)c1ccccc1C2=O (centres undefined): active
N#CC(I)CS(=O)(=O)c1ccccc1 (centres undefined): inactive
Oc1ccc(Nc2ccc3ccccc3c2)cc1: inactive
CC(=O)N1CC(=O)NC1=S: inactive
O=[N+]([O-])CC(O)c1ccccc1 (centres undefined): inactive

Query string: // outcome(item) with item = CCN1CCCC(Nc2cc(C)nc(/N=C(/N)Nc3ccc(Cl)c(Cl)c3)n2)C1 (centres undefined)
Result string: inactive

Query string: What call does the record list for "CCCCCCN(CCCCCC)CCCNc1nccc2ccccc12" ?
Result string: inactive

Query string: Recorded test call requested for "O=C1Nc2ccc(Br)cc2C1=O"
Result string: inactive

Query string: Could you check what this test reported for "CCCN(CCC)C(=O)c1ccc(C)cc1" ?
Result string: inactive

====

Test system: RXF 393 renal
Test: NCI-60 one-dose screen, 48 h
Settings: 10 µM unless noted
This is part of a sample that, as a whole, favours compounds with a hit. Of some 83,000 tested, about 20% had one in any assay. Activity calls are given as the source filed them. Rule for the calls: active = growth percent below 10; inactive = the rest.
Write down the outcome that applies. Available outcomes: label 1 (active), label 0 (inactive)

Solved entries (count: 4):
COc1ccc2nc3cc(Cl)ccc3c(NCCCCCN3CCCCC3)c2c1: label 1
CCOC(=O)c1[nH]c(C#N)c(C(=O)OCC)c1C: label 0
CCCCCCCCCCCCCCCCCC[S+](C)CC (configuration not stated): label 1
CCC1CCCCN1C(=S)N/N=C(\C)c1ccccn1 (configuration not stated): label 1

Query string: Kindly provide the recorded test outcome for the following molecule: "Cc1cc(C(=O)c2ccc(Cl)cc2)ccc1O"
Result string: label 0

Query string: Please share the test call associated with "Oc1ccc(Cl)cc1Cc1cc(Cl)ccc1O" .
Result string: label 0

Query string: Lab log entry: "O=C(c1ccccc1)c1cc2ccccc2oc1=O" — outcome as called in the assay?
Result string: label 0

Query string: In this assay, the call recorded for CCCCCC/C=C1\CCC(CN2CCCC2)C1=O (configuration not stated) was what?
Result string: label 0

Query string: Hi, sorry to bother you, what did the test record for CC(=O)c1c(O)c(C)c(O)c2c1OC1=CC(=O)C(C(C)=O)C(=O)C12C (configuration not stated) ?
Result string: label 0

====

Tested on: HOP-62 NSCLC
Assay: NCI-60 one-dose screen, 48 h (100 = growth as untreated, 0 = no growth, -100 = all killed)
Conditions: 10 µM unless noted
The panel holds about 83,000 compounds, 20% with a hit somewhere; the sample as a whole holds those more often.
EXPERIMENTAL READOUT: growth (%)
Give the value, in units of %, as a plain number.

These recorded examples may help you get a feel for the data.
Cc1cc(C)c([I+]c2c(C)cc(C)cc2C)c(C)c1: -78.3
CN=C(N)N/N=C(\c1ccccc1)c1ccc(Br)cc1: 8.02
CCCC[n+]1c(/C=C\c2c(OC)cc(OC)cc2OC)ccc2ccccc21: 13.8
Cc1ccccc1N=C(N)Nc1ccccc1C (tested in a mixture with another compound): 84.7
CCCCCCCCCCCCN1C(C)=CS/C1=C\C=C\c1scc(C)[n+]1CCCCCCCCCCCC: 35.5

Query string: # input compound: "CCCCCCCCCCCCCCCc1ccc(C(=O)C[n+]2ccccc2)cc1" ; wanted: its growth
Result string: -99

Query string: What measured growth goes with CCCCCCCCCCCC[S+](C)CC(=O)[O-] (centres undefined) ?
Result string: 38.7

Query string: Form field: reported growth of "CN(C)CC(C)(CN(C)C)C(=O)/C=C/c1c(Cl)cccc1Cl"
Result string: 94.6

Query string: Entry under review: "COC(=O)[C@]1(C)CCC[C@]2(C)c3ccc(C(C)C)cc3C(=O)[C@@H](Br)[C@@H]12" . Reported growth?
Result string: 94.3

Query string: GET /values?readout=growth&item= "CC1(O)CCCCCC1"
Result string: 87.7
